Tested on: U2OS
PROTOCOL DETAILS: Incucyte cell viability with U2OS; further: unitless GR value; below 1 slowed growth and below 0 cell loss
Assay type: toxicity, cell-based
CONDITION DETAILS: human, 18 h, 10 µM, compound concentration 10 uM, replicate number 1
Just a reminder that ties go to false: only Growth Rate strictly below 0.8 counts as true.

Solved cases (4 shown):
CC[C@@H]1C(=O)N(C)c2cnc(Nc3ccc(C(=O)NC4CCN(C)CC4)cc3OC)nc2N1C1CCCC1 [BI-2536] : true
Cn1c(C2(NC(=O)c3ccc4c(C5CCCC5)c(-c5ncc(Br)cn5)n(C)c4c3)CCC2)nc2ccc(/C=C/C(=O)O)cc21 [DELEOBUVIR] : true
Cn1cnc(Cn2ccc3ccc(CNCc4[nH]c5ccccc5c4[C@@H]4NC(=O)c5ccc(O)cc54)cc32)c1 : false
O=C1NCc2ccc3c(-c4cccc(Cl)c4)c[nH]c3c21 : true

Item CN(CC(=O)Nc1ccc(F)c(F)c1F)C(=O)c1ccc2c(c1)OCCO2 : Growth Rate beneath 0.8, strictly?
true

Lab log: compare recorded Growth Rate with 0.8; is it strictly lower for C=C(F)C(=O)N1CCN(c2nc(OC[C@@H]3CCCN3C)nc3c2CCN(c2cccc4cccc(Cl)c24)C3)C[C@@H]1CC#N [ADAGRASIB] ?
true

Could you please tell me whether Growth Rate recorded for Cc1cccc(F)c1C(=O)Nc1cnc(-c2cc3c(cc2Cl)OC(F)(F)O3)cn1 [ZEGOCRACTIN] is less than 0.8?
true

Is Growth Rate of COc1ccccc1N1CCN(c2ncnc3c2cnn3-c2ccccc2)CC1 strictly below 0.8?
true

Growth Rate strictly < 0.8 for this molecule? Cl.Clc1ccc(OC[C@H]2CCN2)cn1
true

###

System: Fibroblast
PROTOCOL DETAILS: Incucyte cell viability with human fibroblast; further: unitless GR value; below 1 slowed growth and below 0 cell loss
Format: toxicity, cell-based
CONDITION DETAILS: 12 h, 10 µM, compound concentration 10 uM, replicate number 1
I'd appreciate it if you could label each record using Growth Rate and these ranges: low range: < -0.3; mid range: ≥ -0.3 and < 0.6; high range: ≥ 0.6

Cc1ccc(S(=O)(=O)Nc2ccc(-n3nc(C(F)(F)F)cc3C(F)(F)F)cc2)cc1 : low range

Category lookup for the molecule C[C@@H]1C[C@H](N)C[C@H](c2ccncc2NC(=O)c2ccc(F)c(-c3c(F)cccc3F)n2)C1 [LGH-447]
high range

# bin label for O=C(O)c1ccc2c(c1)nc(NCc1ccccc1)c1ncncc12
high range

Lab note: sort CCn1cnc2c(-c3ccc(F)c(-c4ccc(S(=O)(=O)CC)cc4OC)c3)cnnc21 [DARIGABAT] into the matching Growth Rate band.
high range

Category lookup for the molecule Cc1cc(NC(=O)c2cccc(NC(=O)/C=C/CN(C)C)c2)ccc1Nc1nccc(-c2cccnc2)n1
mid range

Would you mind sorting O=C1NC(c2cccc([N+](=O)[O-])c2)=CCN1c1ccccc1O [ICILLIN] into the appropriate category?
mid range

Sort into band: O=C(O)CCCCN(CCc1cc(F)ccc1OCc1ccc(-c2ccc(C(F)(F)F)cc2)cc1)Cc1ccc(C(=O)O)cc1
high range

Exam item: assign Nc1ccc(S(=O)(=O)Nc2ccnn2-c2ccccc2)cc1 [SULFAPHENAZOLE] to the correct category.
low range

For the record CN1CC[C@@]23CCCC[C@@H]2[C@@H]1Cc1ccc(O)cc13.O=C(O)C(O)C(O)C(=O)O , report the class its Growth Rate corresponds to.
low range

Any idea which band COc1ccccc1S(=O)(=O)Nc1ccc2c(c1)CN(C)C(=O)N2 is in?
mid range

Looking at CC1CCN(c2ccnc(NCc3cn(C)cn3)n2)CC1 [TP-040] , which class would you pick?
high range

Band assignment needed for Clc1ccc(-c2nc3sccn3c2/C=N/OCc2ccc(Cl)c(Cl)c2)cc1 please.
mid range

Each molecule maps to one class by Growth Rate. Which class for CC/C(=C(\c1ccccc1)c1ccc(OCCN(C)C)cc1)c1ccccc1.O=C(O)CC(O)(CC(=O)O)C(=O)O [TAMOXIFEN CITRATE] ?
mid range
